The measured values listed here are drawn from patent US20190125790A1.

test: Acute Oral Toxicity; details: both sexes, rat, in vivo, 5000 mg/Kg, Wistar Rats, 0.05% concentration HOCl aqueous solutions, males and females, read-out: acute median lethal dose LD50
READOUT_TYPE: LD50

### Prompt Given the entry OCl [HOCl, hypochlorous acid] , report its measured LD50.
### Response > 5000 mg/kg

###

test: Acute Inhalation Toxicity; format: in vivo, Young Adult Wistar Rats; conditions: both sexes, Wistar, rat, in vivo, 2.07 mg/L; male and female rats
READOUT_TYPE: LC50

### Prompt Given the entry OCl , report its measured LC50.
### Response > 2.07 µg/mL
